testTarget: HaloTag-ING2 PHD (mouse Ing2 200-280)
testMethodNotes: peptide microarray binding signal (635 nm), min-max normalized on array (fraction of array maximum); higher = stronger binding
testSettings: peptide region: Unmod H1 variant; binder concentration: 100 nM
Below, each entry is listed with its recorded peptide microarray binding signal.
Could you respond with only the numeric value?

* SETAPAAPAAPAP [Unmod H1 variant S E T A P A A P A A P A P] | 0.00418
* YDVEKNNSRIKLG [Unmod H1 variant Y D V E K N N S R I K L G] | 0.0132

Okay, next one:
For the binder KKSTDHPKYSDMI [Unmod H1 variant K K S T D H P K Y S D M I] , report peptide microarray binding signal.
0.00418
